These data points were gathered from PubChem BioAssay (NCI).

test system: K-562 leukemia; experiment: NCI tumour cell line growth inhibition, 48 h

| molecule | TGI |
| --- | --- |
| COc1ccc(N2C(=O)/C(=C\c3ccccc3)SC2c2cc(OC)c(OC)c(OC)c2)cc1 (stereo not drawn) | > 100 µM |
| CCn1c(=O)c(C(=O)O)c(Cl)c2cc3c(cc21)OCO3 | > 100 µM |
| NC(=O)c1ccc([N+](=O)[O-])cc1 | > 100 µM |
| CC1(C)C(=O)C(C)(C)C1=NNC(N)=S | > 100 µM |
| Nc1cccc(OCC2CCCN3CCCCC23)c1 (stereo not drawn) | 76.1 µM |
| COc1cc([C@@H]2c3cc4c(cc3[C@@H](OC(=O)c3cccc(N)c3)C3COC(=O)[C@@H]32)OCO4)cc(OC)c1O (stereo partly drawn) | > 100 µM |
| CC(=O)c1ccccc1NC(=O)C(=O)C(C(=O)c1ccccc1-c1ccccc1)C1OC(=O)c2ccccc21 (stereo not drawn) | > 100 µM |
| O=C1C=C2CCCC2C(C(=O)O)(C(=O)O)C1 (stereo not drawn) | > 100 µM |
| C/C(=N\Nc1nc2ccccc2[nH]1)c1cnccn1 | > 100 µM |
| O=C1c2cccc(O)c2C(=O)c2c(O)cccc21 | > 100 µM |
| Clc1ccc2c(c1)N(C1CCCN(Cc3ccccc3)C1)c1ccccc1S2 (stereo not drawn) | > 100 µM |
| Nc1nc(Cl)c2ncn(Cc3cccc(CCl)c3)c2n1 | > 51 µM |
| O=C1NC2(CCCCC2)C(=O)N1CCN(CCCl)CCCl | > 250 µM |
